Target: human c-Met (HGFR), full length, on the cell surface (human, UniProt P08581 25-1390)
Sequence (P08581 25-1390 limits assumed): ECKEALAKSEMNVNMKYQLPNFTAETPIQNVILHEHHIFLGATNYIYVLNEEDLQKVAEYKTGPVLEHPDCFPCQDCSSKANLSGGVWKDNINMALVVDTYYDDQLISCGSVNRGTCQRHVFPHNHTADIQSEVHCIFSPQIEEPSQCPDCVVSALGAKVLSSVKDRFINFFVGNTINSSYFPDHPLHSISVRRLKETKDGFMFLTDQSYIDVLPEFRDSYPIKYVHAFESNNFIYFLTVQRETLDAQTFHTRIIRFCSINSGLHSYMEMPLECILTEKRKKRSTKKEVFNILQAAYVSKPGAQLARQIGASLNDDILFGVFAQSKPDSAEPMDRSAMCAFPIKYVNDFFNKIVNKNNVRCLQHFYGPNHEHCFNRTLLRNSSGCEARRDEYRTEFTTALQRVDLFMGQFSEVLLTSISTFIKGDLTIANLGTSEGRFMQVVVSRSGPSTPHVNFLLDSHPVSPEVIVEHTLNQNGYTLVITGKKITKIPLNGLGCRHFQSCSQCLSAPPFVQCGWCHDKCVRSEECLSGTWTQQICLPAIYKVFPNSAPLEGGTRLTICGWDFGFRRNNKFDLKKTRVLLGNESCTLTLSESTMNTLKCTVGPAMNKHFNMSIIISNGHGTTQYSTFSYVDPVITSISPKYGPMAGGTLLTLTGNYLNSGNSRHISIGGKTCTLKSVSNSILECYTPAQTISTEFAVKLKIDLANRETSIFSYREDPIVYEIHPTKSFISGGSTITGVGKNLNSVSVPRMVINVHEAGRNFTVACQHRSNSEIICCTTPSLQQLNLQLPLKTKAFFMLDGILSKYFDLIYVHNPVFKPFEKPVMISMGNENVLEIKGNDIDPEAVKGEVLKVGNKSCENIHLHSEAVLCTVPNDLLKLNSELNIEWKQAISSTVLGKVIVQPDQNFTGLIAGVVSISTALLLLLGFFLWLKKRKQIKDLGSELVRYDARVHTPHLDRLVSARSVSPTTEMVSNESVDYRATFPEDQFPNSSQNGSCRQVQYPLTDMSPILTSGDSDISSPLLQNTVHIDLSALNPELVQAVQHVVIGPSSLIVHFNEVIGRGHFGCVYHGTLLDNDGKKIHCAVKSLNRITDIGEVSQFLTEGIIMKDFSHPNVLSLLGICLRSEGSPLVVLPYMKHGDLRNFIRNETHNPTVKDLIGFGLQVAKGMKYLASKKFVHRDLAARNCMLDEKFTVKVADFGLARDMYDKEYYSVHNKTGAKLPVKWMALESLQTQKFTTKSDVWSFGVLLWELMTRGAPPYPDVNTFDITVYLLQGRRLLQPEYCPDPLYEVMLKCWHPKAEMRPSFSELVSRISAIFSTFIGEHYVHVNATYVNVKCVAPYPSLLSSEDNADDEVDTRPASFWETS
Assay: cell-based or functional assay
A collection of binders and their measured IC50, in vitro cytotoxicity, NCI-H596, -HGF
readout kind: IC50, in vitro cytotoxicity, NCI-H596, -HGF

binder="ADC3d (antibody, human IgG1, kappa, V domains shown, vc-seco-DUBA linker-drug on the engineered cysteine at HC position 41 (Kabat); DAR 1.8) VH: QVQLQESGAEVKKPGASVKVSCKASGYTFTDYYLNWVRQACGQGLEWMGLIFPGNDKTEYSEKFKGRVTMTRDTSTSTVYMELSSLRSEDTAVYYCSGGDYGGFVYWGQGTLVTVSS VL: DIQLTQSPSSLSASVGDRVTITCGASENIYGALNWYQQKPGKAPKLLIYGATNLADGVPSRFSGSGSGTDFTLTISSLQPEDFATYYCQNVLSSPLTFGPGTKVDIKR" test_result="> 10 nM"
binder="ADC1 (antibody, human IgG1, kappa, V domains shown, vc-seco-DUBA linker-drug on the engineered cysteine at HC position 41 (Kabat); DAR 1.5) VH: EVQLQQSGPELLKPGASVKMSCKASGYIFTDYFMNWVKQSCGKSLEWIGRVNPKNGDITYNQKFRGKATLTVDKSLTTAYMQLNSLTSEDSAVYFCAYDGYYDGMDFWGQGTSVTVSS VL: ENVLTQSPAIMSASPGEKVTMTCRANSSVSSNFLHWYQQKSGASPKLWISSTSNLAFGVPPRFSGSGSGTSYSLTISSVEAEDAATYYCHQYSGHPFTFGSGTKLEIKR" test_result="> 10 nM"
binder="ADC2a (antibody, human IgG1, kappa, V domains shown, vc-seco-DUBA linker-drug on the engineered cysteine at HC position 41 (Kabat); DAR 1.7) VH: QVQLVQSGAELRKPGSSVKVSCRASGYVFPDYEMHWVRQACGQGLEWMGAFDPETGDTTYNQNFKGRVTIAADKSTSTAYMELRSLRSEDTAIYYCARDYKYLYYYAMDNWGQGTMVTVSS VL: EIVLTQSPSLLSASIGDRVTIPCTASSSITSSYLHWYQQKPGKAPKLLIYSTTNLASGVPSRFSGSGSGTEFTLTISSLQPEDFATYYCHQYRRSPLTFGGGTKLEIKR" test_result="> 10 nM"
